Biological target: AMPK (Homo sapiens)
Construct: endogenous in cells; host or cells: PC-3, DU145, LNCaP
Sequence (Q13131 whole entry): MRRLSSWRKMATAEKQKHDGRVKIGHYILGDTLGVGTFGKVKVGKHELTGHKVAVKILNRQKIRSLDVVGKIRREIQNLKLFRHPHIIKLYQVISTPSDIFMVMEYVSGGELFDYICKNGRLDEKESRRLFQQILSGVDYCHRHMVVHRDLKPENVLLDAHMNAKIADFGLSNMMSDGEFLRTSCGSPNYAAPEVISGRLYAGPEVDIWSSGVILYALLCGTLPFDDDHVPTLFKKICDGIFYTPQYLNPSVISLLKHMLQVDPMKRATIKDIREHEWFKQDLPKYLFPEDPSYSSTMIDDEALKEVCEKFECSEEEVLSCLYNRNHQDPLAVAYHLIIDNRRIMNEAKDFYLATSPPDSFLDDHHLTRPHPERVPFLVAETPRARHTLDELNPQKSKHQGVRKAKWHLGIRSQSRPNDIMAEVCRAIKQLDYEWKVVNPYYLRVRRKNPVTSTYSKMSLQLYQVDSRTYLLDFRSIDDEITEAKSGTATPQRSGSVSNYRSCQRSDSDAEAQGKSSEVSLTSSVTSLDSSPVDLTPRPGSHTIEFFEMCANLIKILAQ
Sequence (Q9Y478 2-270 partner limits assumed): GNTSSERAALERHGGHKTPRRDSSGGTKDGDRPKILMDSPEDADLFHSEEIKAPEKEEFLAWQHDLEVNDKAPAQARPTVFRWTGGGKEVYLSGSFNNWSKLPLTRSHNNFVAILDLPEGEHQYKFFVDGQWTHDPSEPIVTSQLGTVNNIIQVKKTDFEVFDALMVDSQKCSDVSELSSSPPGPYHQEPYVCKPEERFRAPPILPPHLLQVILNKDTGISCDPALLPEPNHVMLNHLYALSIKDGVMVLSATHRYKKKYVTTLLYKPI
Sequence (P54619 whole entry partner): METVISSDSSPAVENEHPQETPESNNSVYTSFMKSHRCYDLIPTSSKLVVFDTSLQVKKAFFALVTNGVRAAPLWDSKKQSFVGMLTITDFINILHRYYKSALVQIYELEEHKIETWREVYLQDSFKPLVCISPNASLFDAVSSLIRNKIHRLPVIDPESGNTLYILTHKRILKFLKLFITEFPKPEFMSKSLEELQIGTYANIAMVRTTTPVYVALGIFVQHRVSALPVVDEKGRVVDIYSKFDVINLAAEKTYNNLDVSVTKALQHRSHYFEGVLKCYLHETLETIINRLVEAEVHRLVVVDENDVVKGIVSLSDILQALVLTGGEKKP
Test: AMPK and ACC phosphorylation by Western blot in PC-3 cells
Assay type: cell-based
Conditions: 25 µM, 1 hour
PARAMETER MEASURED: ACC phosphorylation (pACC/ACC)

INSERT INTO measurements (compound, result) VALUES
  ('O=C1Nc2ccccc2C1(F)Cc1ccc(-c2ccccc2)o1 (centres unmarked)', 'augmented pACC'),
  ('O=C1N(Cc2ccccc2)c2ccc(Cl)cc2C1(F)Cc1ccc(N2CCCC2)cc1 (centres unmarked)', 'augmented pACC');

---

System: PC-3 cells
Test: Cell viability by MTT assay, PC-3
Type: cell-based, human
Settings: Homo sapiens; PC-3, MTT, 24 hours
PARAMETER MEASURED: IC50 (µM)
Your answer should be a plain number; it is taken to be in µM.

// field: IC50; key: O=C1Nc2ccccc2C1(F)Cc1ccc(-c2ccccc2)o1 (stereo not shown) ; value = 18
